This collection of values is drawn from ChEMBL document CHEMBL1155485.

# TARGET UNDER TEST: P2Y purinoceptor 6 (Homo sapiens, UniProt Q15077)
# Sequence (Q15077 whole entry): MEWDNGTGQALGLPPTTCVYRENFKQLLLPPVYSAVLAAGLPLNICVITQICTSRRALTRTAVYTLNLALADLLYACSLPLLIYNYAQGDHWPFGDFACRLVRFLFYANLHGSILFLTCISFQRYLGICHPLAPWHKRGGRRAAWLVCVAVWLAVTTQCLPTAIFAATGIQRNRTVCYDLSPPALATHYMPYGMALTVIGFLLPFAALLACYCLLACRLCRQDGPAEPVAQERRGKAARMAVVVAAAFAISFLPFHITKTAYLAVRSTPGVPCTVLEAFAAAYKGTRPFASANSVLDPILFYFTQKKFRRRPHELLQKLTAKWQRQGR
# RUN DESCRIPTION: Agonist activity at human recombinant P2Y6 receptor expressed in human 1321N1 cells assessed as [3H]inositol phosphate production by scintillation proximity assay
MEASUREMENT TYPE: pEC50
Worth noting: pEC50 values are minus log10 of concentrations stated in mol/L.

Answered examples (2):
CO/N=c1/ccn([C@@H]2O[C@H](COP(=O)(O)OP(=O)(O)OP(=O)(O)O[C@H]3O[C@H](CO)[C@@H](O)[C@H](O)[C@H]3O)[C@@H](O)[C@H]2O)c(=O)[nH]1 | 6.74
O=c1[nH]c(=O)n([C@@H]2O[C@H](COP(=O)(O)OP(=O)(O)O)[C@@H](O)[C@H]2O)cc1I | 7.82

Below: the item to evaluate.
(Q) So what does the record say about pEC50 for CCN(CC)CC.O=c1ccn([C@@H]2O[C@H](COP(=O)(O)OP(=O)(O)OP(=O)(O)Oc3ccccc3)[C@@H](O)[C@H]2O)c(=O)[nH]1 ?
(A) 5.67
